biological target: aldose reductase (Rattus norvegicus, UniProt P07943); construct: their crystalline lenses were immediately removed and stored at -80° C; The lenses were homogenized; from tissue; host or cells: crystalline lens of six-week-old male SD rats (30,000 rpm supernatant, dialysed); test: Test for Examining Aldose Reductase Inhibitory Effect; type: biochemical, male SD rats (crystalline lenses); details: rat lens aldose reductase; DL-glyceraldehyde 10 mM, NADPH 0.15 mM, pH 5.2, 30° C., 5 minutes; least-square regression of log dose-response curve
endpoint: IC50

COc1ccc2cc(-c3nnnn3CC(=O)O)ccc2c1 = 19 nM

These entries and their values trace back to patent US5252592A.
